Where these numbers come from: the supplement of paper PMC8183993

Test system: U2OS
Assay: nuclei count (viability) relative to DMSO (% of DMSO); higher = more viable cells
Details: 10 µM; 24 h
Whole data set: some 3,200 compounds, median “nuclei count (viability) relative to DMSO” near 99, cut for the lowest 2% near 16. Only a selection was taken, and the lowest values are over-represented in it overall.
Binary call on nuclei count: rule met from 60 upward, rule not met beneath that.

Solved entries (count: 5):
MOLECULE | QUALITATIVE LABEL
O=C1C(Cl)=C(NCCN2CCOCC2)C(=O)c2ncccc21 | rule not met
COC[C@H](NC(=O)c1cnc(C)s1)C(=O)N[C@@H](COC)C(=O)N[C@@H](Cc1ccccc1)C(=O)[C@@]1(C)CO1 [Oprozomib (ONX 0912)] | rule not met
Cc1ccc(C(=O)N(CCCN)[C@@H](c2oc3cc(Cl)ccc3c(=O)c2Cc2ccccc2)C(C)C)cc1 | rule not met
CCC(=O)N1CCN(c2ccc(-n3c(=O)ccc4cnc5ccc(-c6cnc7ccccc7c6)cc5c43)cc2C(F)(F)F)CC1 [Torin 1] | rule met
O=C(NCCN1CCOCC1)c1ccc(Cl)cc1 [Moclobemide] | rule met

Please turn your attention to the following entry.
Evaluate COc1ccc(-c2ccc3ncc4c(c3c2)n(-c2ccc(N3CCNCC3)c(C(F)(F)F)c2)c(=O)n4C)cn1 : nuclei count at minimum 60?
rule not met
